// reported IC50 per item
target: Serine/threonine-protein kinase mTOR (Homo sapiens); experiment: Displacement of Alexa Fluor labelled Tracer-314 from human N-terminal GST-tagged mTOR incubated for 1 hr by TR-FRET assay
Number only, in µM; omit the unit.

In [3]: df
Out[3]:
                                     smiles  value
0  C[C@]1(CO)COC(=O)N1c1nc(-c2cnc(N)nc2C(F)(F)F)cc(N2CCOCC2)n1   3.61
1  C[C@H]1OC(=O)N(c2nc(-c3cnc(N)nc3C(F)(F)F)cc(N3CCOCC3)n2)[C@H]1CC#N   3.94
2  Nc1cc(C(F)(F)F)c(-c2cc(N3CCN(c4ccccc4)C3=O)nc(N3CCOCC3)n2)cn1    6.2
3  Nc1ncc(-c2cc(N3CCOCC3)nc(N3CCOCC3)n2)c(C(F)(F)F)n1   2.07

Q) Return IC50 (reported value) for this compound: `C[C@H](O)[C@@H]1COC(=O)N1c1nc(-c2cnc(N)nc2C(F)(F)F)cc(N2CCOCC2)n1`
A) 1.34

Q) Return IC50 (reported value) for this compound: `Nc1cc(C(F)(F)F)c(-c2cc(N3CCCC3=O)nc(N3CCOCC3)n2)cn1`
A) 4.97

Q) Return IC50 (reported value) for this compound: `C[C@H]1OC(=O)N(c2nc(-c3cnc(N)nc3C(F)(F)F)cc(N3CCOCC3)n2)[C@H]1CO`
A) 2.47

Q) Return IC50 (reported value) for this compound: `Nc1ncc(-c2cc(N3CCOCC3)nc(N3C(=O)O[C@@H]4COC[C@@H]43)n2)c(C(F)(F)F)n1`
A) 2

Q) Return IC50 (reported value) for this compound: `C[C@@H]1OC(=O)N(c2nc(-c3cnc(N)nc3C(F)(F)F)cc(N3CCOCC3)n2)[C@H]1CO`
A) 2.58

Q) Return IC50 (reported value) for this compound: `Nc1ncc(-c2cc(N3CCOCC3)nc(N3C(=O)OC[C@H]3CO)n2)c(C(F)(F)F)n1`
A) 5.94

Q) Return IC50 (reported value) for this compound: `C[C@H]1[C@H](CO)OC(=O)N1c1nc(-c2cnc(N)nc2C(F)(F)F)cc(N2CCOCC2)n1`
A) 5.11
